B1: OR4K15 (parent)
chain: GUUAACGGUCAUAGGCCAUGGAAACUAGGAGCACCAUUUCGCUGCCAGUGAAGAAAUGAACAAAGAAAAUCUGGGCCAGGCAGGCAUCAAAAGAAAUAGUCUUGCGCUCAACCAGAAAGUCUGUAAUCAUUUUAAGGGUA

Variants of: B1
Assay: self-cleavage, relative activity (ratio to wild type); higher = more cleavage; in vitro, sequencing; the parent is a self-cleaving ribozyme
The following variants are listed with their measured self-cleavage values.
Answer with a number only.

Mutation	self-cleavage
A66G U120C	1.71
A78U A82G	0.08
A63U U87A	1.18
G123U U130C	0.44

We next turn to a different variant, shown below.
Fill in the blank: the reported self-cleavage of A23G A118G is ____. 0.75

Origin of the recorded values: the RNAGym collection of RNA variant scans (doi:10.7554/elife.90254)
